molecular target: Torsin-1A-interacting protein 2 (Homo sapiens); assay: LULL1 binders on small-molecule microarray, primary screen, cell lysate, human LULL1 lysate, 635/667 nm fluorescence (AID 1092); conditions: hLULL1 lysate binding, 635 nm fluorescence, higher = more signal;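 note: probe is lysate of COS7 cells overexpressing human LULL1; score merges per-feature 667 nm fluorescence with signal-to-noise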
recorded_endpoint: composite z-score
Write the value as a bare number.

compound | tgt | composite z-score
CCOC(=O)C[C@H]1[C@H](OC(=O)c2ccc(C(=O)c3ccccc3)cc2)[C@@H](NC(=O)c2ccccc2)c2cc(OCCCO)ccc2N1C(=O)Cc1ccc(OC)cc1 | Torsin-1A-interacting protein 2 (Homo sapiens) | 0.84

Next up:
# input # return recorded composite z-score for input "CC(C)NC(=O)[C@@H]1c2ccccc2C(=O)N(C2Cc3ccccc3C2)[C@H]1c1ccc(CO)cc1"
# output 2.33

---

assay: yeast growth modulation, basal conditions, primary screen, YJM789 clinical isolate, OD600, 24 h (AID 1089);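 note: growth of clinical yeast isolate S. cerevisiae YJM 789 seeded 1000 cells per well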; details: S. cerevisiae YJM789 growth, higher = more signal, called active from +8 up or from −8 down
recorded_endpoint: z-score
Write the value as a bare number.

compound | numeric_result
C=CC[C@@]12N=C(c3ccc(OCCCO)cc3)O[C@@H]1c1ccccc1N(C)C2=O | 0.501
O=C(NC1CC1)[C@@H]1c2ccccc2C(=O)N(Cc2ccccc2Cl)[C@H]1c1ccc(CO)cc1 | -2.17
COC(=O)[C@@]1(Cc2ccc(OC)cc2)[C@H]2c3cc(C(=O)N(C)C)n(Cc4ccc(S(C)(=O)=O)cc4)c3C[C@H]2CN1C(=O)c1ccccc1 | -3.22
[N-]=[N+]=NCc1ccccc1[C@@H]1OC(c2ccc(OCCCO)cc2)=N[C@]1(Cc1ccccc1)C(=O)NCC(O)CO (some centres not stated) | -0.427
C=CCC(OC(C)=O)[C@@H]1[C@@H](N(Cc2ccc(-c3ccccc3)cc2)C(=O)c2ccc(-c3ccccc3)cc2)c2cc(OCCCO)ccc2N1C(=O)Cc1ccc2ccccc2c1 (some centres not stated) | -0.609
C=CCC(OC(C)=O)[C@@H]1[C@@H](N(Cc2ccc(-c3ccccc3)cc2)C(=O)c2cccc3ccccc23)c2cc(OCCCO)ccc2N1C(=O)c1ccc(-c2ccccc2)cc1 (some centres not stated) | 0.21

Next up:
# input # return recorded z-score for input "C[N+](C)(C)CCCCCCNC(=O)[C@@H]1C[C@@H]2C(=O)N[C@@H](Cc3ccccc3)C(=O)N2[C@@H]1c1cccc(OCCO)c1"
# output -0.165

---

test system: XIP peptide (Xip251-270); assay: small-molecule binders of XIP peptide, primary screen, biochemical, small-molecule microarray, fluorescence 635/667 nm, 0.5 µg/mL protein (AID 1183); details: small-molecule microarray binding, fluorescence 635 nm; higher = more signal
# composite z-score >= 0.2 gives rule met, anything below gives rule not met

Examples from the recorded data:
compound | label_value
CC(C)C(O)C1C=CC2C(=O)N(c3ccccc3)C(=O)C2N1Nc1ccc([N+](=O)[O-])cc1 (stereo unspecified) | rule not met
COc1ccccc1CN1C(=O)c2ccccc2[C@@]2(Cc3ccccc3N(CC(C)C)C2=O)[C@@H]1c1ccc(CO)cc1 | rule met
O=C1[C@@]23C=C(Br)[C@H](C[C@@H]2CCOC3)[C@@]12CO2 | rule not met

# input Has O=C1NC(=O)C2C1C=CC(C(O)c1cccs1)N2Nc1ccc(Cl)cc1Cl (stereo unspecified) a recorded composite z-score greater than or equal to 0.2?
# output rule met

# input Has "CC(C)N1C(=O)c2ccccc2[C@](C)(C(=O)NCCN2CCOCC2)[C@@H]1c1ccc(CO)cc1" a recorded composite z-score greater than or equal to 0.2?
# output rule not met

# input Has "COC(=O)[C@@]1(Cc2ccc(F)cc2)[C@H]2c3cc(C(=O)N4CCCC4)n(CCCNc4ncc(C(F)(F)F)cc4Cl)c3C[C@H]2CN1C(=O)c1ccccc1" a recorded composite z-score greater than or equal to 0.2?
# output rule met

---

Recorded composite z-score values for a group of compounds are listed next.
biological target: Concanavalin-A (Canavalia ensiformis); assay: ConA small-molecule binders, primary screen, artefact control for SMM control protein annotation, biochemical, small-molecule microarray, Alexa647 label, 635 nm (AID 1127); details: ConA-A647 binding fluorescence, higher = more signal;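 note: z combines 667 nm emission intensity with signal-to-noise across three replicate slides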
Write the value as a bare number.

compound | tgt | numeric_result
C=CC1(C(=O)OC)CC=C(C(=O)OC)CC1 (configuration not stated) | Concanavalin-A (Canavalia ensiformis) | 0.339
[N-]=[N+]=Nc1ccccc1[C@H]1OC(c2ccc(OCCCO)cc2)=N[C@@]1(CCS(=O)(=O)c1ccccc1)C(=O)NCC(O)CO (some centres not stated) | Concanavalin-A (Canavalia ensiformis) | 0.833
C=CCC(OC(C)=O)[C@@H]1[C@@H](N(Cc2ccc(-c3ccccc3)cc2)C(=O)Cc2ccc(OC)cc2)c2cc(OCCCO)ccc2N1C(=O)Cc1ccc2ccccc2c1 (some centres not stated) | Concanavalin-A (Canavalia ensiformis) | -1.7
CC(CO)N1C(=O)[C@@H]2C3C(=O)OCCC/C=C\[C@H]3OC23C=CCN(C(C)(C)C)C(=O)[C@@H]13 (some centres not stated) | Concanavalin-A (Canavalia ensiformis) | 0.0099
CN1C(=O)C2C=CC(C(O)c3ccccc3)N(N(c3ccccc3)c3ccccc3)C2C1=O (configuration not stated) | Concanavalin-A (Canavalia ensiformis) | -0.529

# input Report measured composite z-score on Concanavalin-A (Canavalia ensiformis); entry: "NC(=O)NCC#Cc1ccc2c(c1)[C@]1(C(=O)N2)[C@H](C(N)=O)[C@H]2C(=O)O[C@H](c3ccccc3)[C@H](c3ccccc3)N2[C@@H]1c1ccc(O)cc1"
# output -0.279

# input Report measured composite z-score on Concanavalin-A (Canavalia ensiformis); entry: "CCOC(=O)C[C@H]1[C@H](OC(=O)c2ccccc2-c2ccccc2)[C@@H](NC(=O)CC(C)C)c2cc(OCCCO)ccc2N1C(=O)Cc1ccc(OC)cc1"
# output 0.482

---

target: Calmodulin-1 (Homo sapiens) (UniProt P0DP23); test: calcium-bound CALM1 binders on microarrays, profiling panel, artefact control for SMM control-protein annotation, biochemical, small-molecule microarray, Cy5-labelled CALM1, plus calcium (AID 1112); conditions: Cy5-CALM1 binding fluorescence, higher = more signal;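 note: score merges spot fluorescence with signal to noise from triplicate slides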
# composite z-score >= 0.3 gives t, anything below gives f

Examples from the recorded data:
compound | tgt | label_value
CO[C@H]1O[C@H](CO)[C@@H](OC(=O)Nc2ccc(Oc3ccccc3)cc2)[C@H](OC(=O)Nc2ccc3c(c2)OCO3)[C@H]1OC(=O)Nc1ccc2c(c1)OCO2 | Calmodulin-1 (Homo sapiens) (UniProt P0DP23) | f
CC(CO)N1C(=O)[C@@H]2C3C(=O)OCCC/C=C\[C@H]3OC23C=CCN(C(C)(C)C)C(=O)[C@@H]13 (some centres not stated) | Calmodulin-1 (Homo sapiens) (UniProt P0DP23) | f
C=CCNC(=O)[C@@H]1[C@H]2C(=O)O[C@H](c3ccccc3)[C@H](c3ccccc3)N2[C@H](c2ccc(OCCO)cc2)[C@@]12C(=O)Nc1ccc(C#CCC(C(=O)OC)C(=O)OC)cc12 | Calmodulin-1 (Homo sapiens) (UniProt P0DP23) | f
COCCCNC(=O)[C@@]1(C)c2ccccc2C(=O)N(C(C)C)[C@H]1c1ccc(CO)cc1 | Calmodulin-1 (Homo sapiens) (UniProt P0DP23) | f
CC(C)=CCCC(C)=CC(O)C1C=CC2C(=O)N(C)C(=O)C2N1Nc1ccccc1 (configuration not stated) | Calmodulin-1 (Homo sapiens) (UniProt P0DP23) | t

Consider the additional compound presented here.
# input Has COc1cc2c(cc1O)C(C1CC1)N(Cc1sc3ccccc3c1Cl)CC2 (configuration not stated) a recorded composite z-score greater than or equal to 0.3?
# output t

---

molecular target: Fibroblast growth factor 10 (Homo sapiens); assay: FGF10 binders on small-molecule microarrays, primary screen, biochemical, small-molecule microarray, 635 nm fluorescence (AID 1102); settings: FGF10 binding, fluorescence 635 nm, higher = more signal
recorded_endpoint: composite z-score
Write the value as a bare number.

Illustrative cases are given below, each with its answer.
compound | composite z-score
COc1ccccc1CN1C(=O)c2ccccc2[C@@H](C(=O)NC2CC2)[C@@H]1c1ccc(CO)cc1 | 1.27
CC1CC/C=C\[C@H]2OC34C=CCN(C(C)(C)C)C(=O)[C@H]3N(CCO)C(=O)[C@@H]4C2C(=O)O1 (stereo partly drawn) | -0.98
C=CC(=C)[C@H]1Oc2ccccc2S(=O)(=O)N2CCC[C@@H]12 | -0.249
NC(=O)NCC#Cc1ccc2c(c1)[C@]1(C(=O)N2)[C@H](c2ccccc2OCCO)N2[C@H](c3ccccc3)[C@H](c3ccccc3)OC(=O)[C@H]2[C@@H]1C(=O)Nc1nc2ccccc2s1 | 0.271
CC(=O)NCCCC[C@@H]1NC(=O)[C@@H]2C[C@H](C(=O)NCCCCCNC(=O)CS)[C@H](c3cccc(OCCO)c3)N2C1=O | 0.0349
C#C[C@H](O[Si](C#Cc1ccc(Oc2ccccc2)cc1)(C(C)C)C(C)C)c1ccccc1 | 0.406
C=CCN1C(=O)[C@@]2(CC=C)N=C(c3ccc(OCCCO)cc3)O[C@H]2c2ccccc21 | 1.45

Next up:
# input # return recorded composite z-score for input "Cc1nc2cc(Br)ccc2c(=O)o1"
# output 0.543

# credit: PubChem BioAssay
